# test.details: inhibitors of HIV fusion peptide binding, primary screen, biochemical, uHTS, fluorescence dequenching (AID 1986)
# measurement.setup: cell-free peptide binding, 30 min, at 20 µM, active compounds read high
Among all 290,000 compounds or so, about 890 (0.31%) were called active. For the sample, actives were picked, then their nearest neighbours and some compounds at random.
Measured inhibition, listed per entry for reference.

{"columns": ["smiles.record", "uom", "inhibition"],
 "data": [
  ["COc1cc(/C=C(/C#N)c2nc(-c3cc4ccccc4oc3=O)cs2)cc([N+](=O)[O-])c1O", "%", 66.8],
  ["COc1cc(/C=C(\\C#N)c2nc(-c3cc4ccccc4oc3=O)cs2)ccc1O", "%", 31.9],
  ["COc1ccc(/C=C(\\C#N)c2nc3ccc(C)cc3[nH]2)cc1Oc1ccc(C(F)(F)F)cc1[N+](=O)[O-]", "%", 10],
  ["COc1ccccc1C(=O)NNC(=O)c1cccc(C)c1", "%", 0.2],
  ["CCSc1nnc(-c2sc3nnc(-c4ccccc4)c(-c4ccccc4)c3c2N)o1", "%", 98.4],
  ["COc1cc(/C=C(\\C#N)c2nc3ccc(C)cc3[nH]2)c([N+](=O)[O-])cc1OC", "%", -2.7],
  ["NC(=O)c1sc2nnc(-c3ccccc3)c(-c3ccccc3)c2c1N", "%", 1.6],
  ["COc1cc(/C=C(\\C#N)C(=O)c2c(C)[nH]c3ccccc23)cc(OC)c1OC", "%", -1.7],
  ["C=CCOC(=O)CCC(=O)Nc1cc(OC)nc(OC)n1", "%", -0.6],
  ["COc1ccc(/C=C(\\C#N)c2nc3ccccc3[nH]2)cc1O", "%", -0.7]
]}
